# Lookup of reported Emax keyed by entry
molecular target: human orexin type 2 receptor (hOX2R) (Homo sapiens (Human), UniProt O43614); experiment: Measurement of orexin type 2 receptor agonist activity (Experimental Example 2-1, FLIPR TETRA, intracellular Ca2+); format: cell-based; settings: CHO dhfr- cells expressing hOX2R, FLIPR TETRA, Fluo-4AM; read-out: Emax (%)
Sequence (O43614 whole entry): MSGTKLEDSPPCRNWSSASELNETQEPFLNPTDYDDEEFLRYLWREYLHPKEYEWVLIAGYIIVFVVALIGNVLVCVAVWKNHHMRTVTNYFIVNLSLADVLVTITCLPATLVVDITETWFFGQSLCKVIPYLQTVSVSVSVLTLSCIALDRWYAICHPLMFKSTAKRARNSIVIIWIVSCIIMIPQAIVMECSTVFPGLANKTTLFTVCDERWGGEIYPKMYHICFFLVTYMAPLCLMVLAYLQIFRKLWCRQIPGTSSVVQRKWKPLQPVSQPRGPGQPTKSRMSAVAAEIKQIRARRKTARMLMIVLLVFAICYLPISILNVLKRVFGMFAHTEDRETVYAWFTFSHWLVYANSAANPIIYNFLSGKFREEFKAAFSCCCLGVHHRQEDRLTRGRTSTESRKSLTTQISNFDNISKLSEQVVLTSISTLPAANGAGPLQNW
# unit: % | format: bare number

The recorded Emax for CS(=O)(=O)N[C@H]1CCCN(C(=O)C2CC2)[C@H]1CO[C@H]1CC[C@@H](c2cc(F)ccc2F)CC1 [Example 214] is 105

---

target: human orexin type 2 receptor (hOX2R) (Homo sapiens (Human), UniProt O43614); experiment: Measurement of orexin type 2 receptor agonist activity (Experimental Example 2-1, FLIPR TETRA, intracellular Ca2+); assay type: cell-based; details: CHO dhfr- cells expressing hOX2R, FLIPR TETRA, Fluo-4AM
Property: pEC50; scope: individual compounds
Quick note: pEC50 means taking -log10 of the concentration in moles per liter.

compound	pEC50
CS(=O)(=O)N[C@H]1CCCN(C(=O)Cn2cccn2)[C@H]1CO[C@H]1CC[C@@H](c2ccccc2)CC1 (relative stereo) [Example 138]	7.66
COc1cccc([C@H]2CC[C@@H](OC[C@H]3[C@@H](NS(C)(=O)=O)CCCN3C(C)=O)CC2)c1 (relative stereo) [Example 271]	6.19

From here, focus on the item given below.
Measured pEC50, COC(=O)N1CCC[C@H](NS(C)(=O)=O)[C@@H]1COC1CCN(c2ncccn2)CC1 (relative stereo) [Example 151] : 6.31

---

Molecular target: UniProt O43614
Assay: Measurement of orexin type 2 receptor agonist activity (Experimental Example 2-1, FLIPR TETRA, intracellular Ca2+)
Format: cell-based
Conditions: CHO dhfr- cells expressing hOX2R, FLIPR TETRA, Fluo-4AM
From the text: To obtain a cell clone stably expressing human orexin type 2 receptor, human orexin type 2 receptor cDNA was inserted into pcDNA3.1(+) plasmid vector (Invitrogen), and a plasmid DNA for expression of human orexin type 2 receptor (pcDNA3.1(+)/hOX2R) was cloned. The plasmid DNA was introduced into CHO-dhfr cell by an electroporation method, and human orexin type 2 receptor expressing clone cells were obtained by limiting dilution method by using G418 drug resistance as a selection marker. […]
assay_metric: pEC50
Just the number, please; pEC50 means minus log10 of the concentration in mol/L.

Solved entries:
compound	pEC50
COC(=O)N1CCC[C@H](NS(C)(=O)=O)[C@@H]1CO[C@H]1CC[C@@H](c2cc(F)cc(F)c2F)CC1	8.59
CCNC(=O)N1CCC[C@H](NS(C)(=O)=O)[C@@H]1COC1CCN(c2ccccc2F)CC1 (relative stereo)	6.60
CCNC(=O)N1CCC[C@H](NS(C)(=O)=O)[C@@H]1CO[C@H]1C[C@@H](Cc2ccccc2)C1 (relative stereo)	5.43
CS(=O)(=O)N[C@H]1CCCN(C(=O)C2CC2)[C@H]1CO[C@H]1CC[C@@H](c2cc(F)cc(F)c2)CC1	9.06
CS(=O)(=O)N[C@H]1CCCN(C(=O)C2CC2)[C@H]1CO[C@H]1CC[C@@H](c2cccc(OC(F)(F)F)c2)CC1 (relative stereo)	7.02
CS(=O)(=O)N[C@H]1CCCN(C(=O)C2CC2)[C@H]1CO[C@H]1C[C@@H](c2ccccc2)C1 (relative stereo)	6.52

Readout pEC50 for CS(=O)(=O)N[C@H]1CCCN(C(=O)[C@H]2CCC(=O)O2)[C@H]1CO[C@H]1CC[C@@H](c2ccccc2)CC1 , test system UniProt O43614, was 7.40

// pEC50 (UniProt O43614) for CC(C)OC(=O)N1CCC[C@H](NS(C)(=O)=O)[C@@H]1CO[C@H]1CCN(c2ncccn2)C[C@H]1F (relative stereo) = 7.52

// returns pEC50 for CCNC(=O)N1CCC[C@H](NS(C)(=O)=O)[C@@H]1CO[C@H]1C[C@H](Oc2ccccc2)C1 (relative stereo) with UniProt O43614; value = 5.48

---

target: human orexin type 2 receptor (hOX2R) (Homo sapiens (Human), UniProt O43614); test: Measurement of orexin type 2 receptor agonist activity (Experimental Example 2-1, FLIPR TETRA, intracellular Ca2+); format: cell-based; details: CHO dhfr- cells expressing hOX2R, FLIPR TETRA, Fluo-4AM; read-out: Emax (%)
assay_metric: Emax

compound	target	Emax
CS(=O)(=O)N[C@H]1CCCN(C(=O)C2CC2)[C@H]1COC1CCN(c2ncc(F)cn2)CC1 (relative stereo)	human orexin type 2 receptor (hOX2R) (Homo sapiens (Human), UniProt O43614)	97%
CS(=O)(=O)N[C@H]1CCCN(C(=O)CC2CC2)[C@H]1CO[C@H]1C[C@@H](c2ccccc2)C1 (relative stereo)	human orexin type 2 receptor (hOX2R) (Homo sapiens (Human), UniProt O43614)	109%

// switching to the query compound
So, CC(=O)N1CCC[C@H](NS(C)(=O)=O)[C@@H]1CO[C@H]1CC[C@@H](c2ccccc2C)CC1 ? Its Emax was 106%

---

molecular target: human orexin type 2 receptor (hOX2R) (Homo sapiens (Human), UniProt O43614); experiment: Measurement of orexin type 2 receptor agonist activity (Experimental Example 2-1, FLIPR TETRA, intracellular Ca2+); assay type: cell-based; conditions: CHO dhfr- cells expressing hOX2R, FLIPR TETRA, Fluo-4AM; read-out: Emax (%)
assay_metric: Emax

Some solved cases for reference:
compound	target	Emax
COC(=O)N1CCC[C@H](NS(=O)(=O)N(C)C)[C@@H]1CO[C@H]1CC[C@@H](c2ccccc2)CC1 [Example 309]	human orexin type 2 receptor (hOX2R) (Homo sapiens (Human), UniProt O43614)	106%
CS(=O)(=O)N[C@H]1CCCN(C(=O)C2CC2(F)F)[C@H]1COC1CCN(c2ccccc2F)CC1 (relative stereo) [Example 225]	human orexin type 2 receptor (hOX2R) (Homo sapiens (Human), UniProt O43614)	98%
CCNC(=O)N1CCC[C@H](NS(C)(=O)=O)[C@@H]1CO[C@H]1CC[C@@H](c2cccc(F)c2F)CC1 (relative stereo) [Example 136]	human orexin type 2 receptor (hOX2R) (Homo sapiens (Human), UniProt O43614)	102%

Shifting focus to the compound that follows.
Emax in this record for CS(=O)(=O)N[C@H]1CCCN[C@H]1CO[C@H]1CC[C@@H](c2ccccc2F)CC1 [Example 260] : 99%

---

molecular target: human orexin type 2 receptor (hOX2R) (Homo sapiens (Human)); experiment: Measurement of orexin type 2 receptor agonist activity (Experimental Example 2-1, FLIPR TETRA, intracellular Ca2+); format: cell-based; settings: CHO dhfr- cells expressing hOX2R, FLIPR TETRA, Fluo-4AM; read-out: Emax (%)
assay_metric: Emax (%)
Output spec: scalar in %, unitless text.

In the examples that follow, each entry is paired with its recorded Emax.
compound	assay_metric	endpoint_result
CS(=O)(=O)N[C@H]1CCCN(C(=O)C2CC(=O)C2)[C@H]1COC1CCN(c2ccccc2F)CC1 (relative stereo)	Emax	83
Cn1ccc([C@H]2CC[C@@H](OC[C@@H]3NCCC[C@@H]3NS(C)(=O)=O)CC2)n1 (relative stereo)	Emax	96
CC(C)CC(=O)N1CCC[C@H](NS(C)(=O)=O)[C@@H]1COC1CCN(c2ccccc2F)CC1 (relative stereo)	Emax	80

# lookup: COC(=O)N1CCC[C@H](NS(C)(=O)=O)[C@@H]1CO[C@H]1CC[C@@H](c2c(F)ccc(F)c2F)CC1 on human orexin type 2 receptor (hOX2R) (Homo sapiens (Human)), Emax = 97
